- System under test: human TRPML1 (Homo sapiens, UniProt Q9GZU1)
- Sequence (Q9GZU1 whole entry L15A/L16A/L577A/L578A, form open): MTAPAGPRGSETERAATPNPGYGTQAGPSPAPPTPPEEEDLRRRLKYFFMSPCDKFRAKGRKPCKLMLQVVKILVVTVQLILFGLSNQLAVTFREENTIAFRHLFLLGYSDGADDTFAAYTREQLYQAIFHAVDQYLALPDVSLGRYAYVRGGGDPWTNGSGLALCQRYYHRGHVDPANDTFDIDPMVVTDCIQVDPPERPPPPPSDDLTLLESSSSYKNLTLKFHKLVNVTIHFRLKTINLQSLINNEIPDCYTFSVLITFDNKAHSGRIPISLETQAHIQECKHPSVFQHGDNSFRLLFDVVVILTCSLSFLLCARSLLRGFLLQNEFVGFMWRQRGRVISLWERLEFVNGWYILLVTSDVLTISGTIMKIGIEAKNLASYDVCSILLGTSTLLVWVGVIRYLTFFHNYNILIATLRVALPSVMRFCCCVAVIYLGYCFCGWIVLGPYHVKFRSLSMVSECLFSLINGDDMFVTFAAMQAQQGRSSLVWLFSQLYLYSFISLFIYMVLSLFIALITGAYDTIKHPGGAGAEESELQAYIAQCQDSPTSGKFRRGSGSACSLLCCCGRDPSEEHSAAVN
- Method summary: Fluorescent TRPML1 assay (Fluo4-AM calcium fluorescence, HEK-293 Trex cells)
- Type: cell-based
- Test settings: Table 3, compounds 201-283

- Smiles repr: "COC(C)(C)C(=O)N1C[C@H](C)N(c2ncnc3c2c(-c2ccccc2)cn3-c2cc(C#N)ccn2)C[C@H]1C"
  EC50: "< 0.1 µM"
- Smiles repr: "C[C@@H]1CN(c2ncnc3c2c(C2CCC2)cn3-c2cccc(F)c2)[C@@H](C)CN1C(=O)C(C)(C)C"
  EC50: "0.1 to 0.5 µM"
- Smiles repr: "CC(C)CC(=O)N1CCN(c2ncnc3c2c(N2CCC2)cn3-c2cc(C#N)ccn2)C[C@H]1C"
  EC50: "< 0.1 µM"
- Smiles repr: "CC(C)C(=O)N1C[C@H](C)N(c2ncnc3c2c(N2CCC2)cn3-c2cccc(Cl)c2)C[C@H]1C"
  EC50: "< 0.1 µM"

* * *

Each record here notes measured pEC50.
- System under test: human TRPML1 (Homo sapiens)
- Method summary: Fluorescent TRPML1 assay (Fluo4-AM calcium fluorescence, HEK-293 Trex cells)
- Assay type: cell-based
- Test settings: Table 3, compounds 201-283
pEC50: −log10 of the molar value.
Value kind: pEC50

- Molecule: "COC(C)(C)C(=O)N1C[C@H](C)N(c2ncnc3c2c(C2CC2)cn3-c2cccc(F)c2)C[C@H]1C"
  Result: "6.30 to 7.00"
- Molecule: "Cc1cn(-c2cc(F)ccn2)c2ncnc(N3C[C@@H](C)N(C(=O)C(C)(C)C)C[C@@H]3C)c12"
  Result: "> 7.00"
- Molecule: "COC1(C(=O)N2C[C@H](C)N(c3ncnc4c3c(-c3ccccc3)cn4-c3cc(C#N)ccn3)C[C@H]2C)CC1"
  Result: "> 7.00"
- Molecule: "CC(C)C(=O)N1CCN(c2ncnc3c(-c4cc(C#N)ccn4)cn(-c4ccccn4)c23)[C@@H](C)C1"
  Result: "< 5.70"
- Molecule: "C[C@H]1CN(C(=O)[C@@H](F)C(C)(C)C)CCN1c1ncnc2c1c(C1CC1)cn2-c1cc(C#N)ccn1 (single isomer, unassigned)"
  Result: "> 7.00"
- Molecule: "COC(C)(C)C(=O)N1CCN(c2ncnc3c2c(C(F)(F)F)cn3-c2cc(C#N)ccn2)[C@@H](C)C1"
  Result: "6.30 to 7.00"
- Molecule: "CC(C)C(=O)N1C[C@@H](C)N(c2ncnc3c2c(-c2ccccc2F)cn3-c2cc(C#N)ccn2)C[C@@H]1C"
  Result: "5.70 to 6.30"

* * *

Each record here notes measured EC50.
- System under test: TRPML3 (Homo sapiens)
- Construct: expressed in transfected cells
- Method summary: Fluorescent TRPML3 assay (as for TRPML1)
- Assay type: cell-based
- Test settings: Table 3, compounds 101-177
Value kind: EC50

- Smiles repr: "CC(C)C(=O)N1C[C@H](C)N(c2ncnc3c2c(-c2ccccc2F)cn3-c2cc(C#N)ccn2)C[C@H]1C"
  System under test: "TRPML3 (Homo sapiens)"
  Value kind: "EC50"
  Result: "< 100 nM"
- Smiles repr: "C[C@H]1CN(C(=O)C(C)(C)F)CCN1c1ncnc2c1c(C1CC1)cn2-c1cc(C#N)ccn1"
  System under test: "TRPML3 (Homo sapiens)"
  Value kind: "EC50"
  Result: "< 100 nM"
- Smiles repr: "CC(C)C(=O)N1CCN(c2ncnc3c2c(-c2ccccc2)cn3-c2cc(C#N)ccn2)[C@@H](C)C1"
  System under test: "TRPML3 (Homo sapiens)"
  Value kind: "EC50"
  Result: "< 100 nM"
- Smiles repr: "CC(C)C(=O)N1CCN(c2ncnc3c2c(-c2ccccn2)cn3-c2cc(C#N)ccn2)[C@@H](C)C1"
  System under test: "TRPML3 (Homo sapiens)"
  Value kind: "EC50"
  Result: "500 to 2000 nM"
- Smiles repr: "CC(C)C(=O)N1CCN(c2ncnc3c2c(-c2ccccc2F)cn3-c2cc(C#N)n(C)c2)[C@@H](C)C1"
  System under test: "TRPML3 (Homo sapiens)"
  Value kind: "EC50"
  Result: "500 to 2000 nM"
- Smiles repr: "C[C@H]1CN(C(=O)C(C)(C)F)CCN1c1ncnc2c1c(-c1ccccc1F)cn2-c1cc(C#N)ccn1"
  System under test: "TRPML3 (Homo sapiens)"
  Value kind: "EC50"
  Result: "< 100 nM"
- Smiles repr: "C[C@H]1CN(C(=O)CC(C)(C)C)CCN1c1ncnc2c1c(-c1ccccc1F)cn2-c1cc(C#N)ccn1"
  System under test: "TRPML3 (Homo sapiens)"
  Value kind: "EC50"
  Result: "< 100 nM"

* * *

- System under test: TRPML3 (Homo sapiens)
- Construct: expressed in transfected cells
- Method summary: Fluorescent TRPML3 assay (as for TRPML1)
- Assay type: cell-based
- Test settings: Table 3, compounds 201-283
Value kind: EC50

- Compound: "C[C@@H]1CN(c2nccc3c2c(N2CCC2)cn3-c2cccc(F)c2)[C@@H](C)CN1C(=O)C(C)(C)C [Compound 226]"
  Value kind: "EC50"
  Result: "< 100 nM"
- Compound: "C[C@@H]1CN(c2ncnc3c2c(N2CCC2)cn3-c2cc(F)cc(F)c2)[C@@H](C)CN1C(=O)C(C)(C)C [Compound 217]"
  Value kind: "EC50"
  Result: "100 to 500 nM"
- Compound: "CC(C)C(=O)N1C[C@H](C)N(c2ncnc3c2c(N2CCC2)cn3-c2cc(C#N)ccn2)C[C@H]1C [Compound 275]"
  Value kind: "EC50"
  Result: "100 to 500 nM"
- Compound: "CC(C)C(=O)N1CCN(c2ncnc3c2c(N2CCC2)cn3-c2cc(C#N)ccn2)C[C@H]1C [Compound 273]"
  Value kind: "EC50"
  Result: "< 100 nM"
- Compound: "C[C@@H]1CN(c2ncnc3c2c(C2CCC2)cn3-c2cccc(C(F)(F)F)c2)[C@@H](C)CN1C(=O)CC(C)(C)C(F)(F)F [Compound 262]"
  Value kind: "EC50"
  Result: "500 to 2000 nM"
- Compound: "COC(C)(C)C(=O)N1C[C@H](C)N(c2ncnc3c2c(N2CCC2)cn3-c2cc(C#N)ccn2)C[C@H]1C [Compound 268]"
  Value kind: "EC50"
  Result: "< 100 nM"
- Compound: "CC(C)C(=O)N1C[C@H](C)N(c2ncnc3c2c(N2CCC2)cn3-c2cc(F)cc(F)c2)C[C@H]1C [Compound 218]"
  Value kind: "EC50"
  Result: "500 to 2000 nM"
- Compound: "C[C@@H]1CN(c2ncnc3c2c(C2CCC2)cn3-c2cccc(F)c2)[C@@H](C)CN1C(=O)C(C)(C)C(F)(F)F [Compound 252]"
  Value kind: "EC50"
  Result: "100 to 500 nM"
- Compound: "C[C@H]1CN(C(=O)C(C)(C)C)CCN1c1ncnc2c1c(N1CCC1)cn2-c1cccc(F)c1 [Compound 216]"
  Value kind: "EC50"
  Result: "> 2000 nM"
- Compound: "C[C@@H]1CN(c2ncnc3c2c(N2CCCC2)cn3-c2cccc(Cl)c2)[C@@H](C)CN1C(=O)C1(F)CC1 [Compound 280]"
  Value kind: "EC50"
  Result: "500 to 2000 nM"
- Compound: "C[C@@H]1CN(c2ncnc3c2c(C2CCC2)cn3-c2cccc(Cl)c2)[C@@H](C)CN1C(=O)C(C)(C)C(F)(F)F [Compound 257]"
  Value kind: "EC50"
  Result: "500 to 2000 nM"
- Compound: "C[C@@H]1CN(c2ncnc3c2c(C2CCC2)cn3-c2cccc(F)c2)[C@@H](C)CN1C(=O)CC(C)(C)C(F)(F)F [Compound 251]"
  Value kind: "EC50"
  Result: "100 to 500 nM"
- Compound: "C[C@@H]1CN(c2ncnc3c2c(-c2ccccc2F)cn3-c2cc(F)ccn2)[C@@H](C)CN1C(=O)C1(F)CC1 [Compound 247]"
  Value kind: "EC50"
  Result: "500 to 2000 nM"
- Compound: "[2H]C([2H])([2H])C(C(=O)N1C[C@H](C)N(c2ncnc3c2c(-c2ccccc2F)cn3-c2cc(C#N)ccn2)C[C@H]1C)(C([2H])([2H])[2H])C([2H])([2H])[2H] [Compound 231]"
  Value kind: "EC50"
  Result: "< 100 nM"

* * *

Each record here notes measured pEC50.
- System under test: TRPML3 (Homo sapiens, UniProt Q8TDD5)
- Construct: expressed in transfected cells
- Sequence (Q8TDD5 1-553): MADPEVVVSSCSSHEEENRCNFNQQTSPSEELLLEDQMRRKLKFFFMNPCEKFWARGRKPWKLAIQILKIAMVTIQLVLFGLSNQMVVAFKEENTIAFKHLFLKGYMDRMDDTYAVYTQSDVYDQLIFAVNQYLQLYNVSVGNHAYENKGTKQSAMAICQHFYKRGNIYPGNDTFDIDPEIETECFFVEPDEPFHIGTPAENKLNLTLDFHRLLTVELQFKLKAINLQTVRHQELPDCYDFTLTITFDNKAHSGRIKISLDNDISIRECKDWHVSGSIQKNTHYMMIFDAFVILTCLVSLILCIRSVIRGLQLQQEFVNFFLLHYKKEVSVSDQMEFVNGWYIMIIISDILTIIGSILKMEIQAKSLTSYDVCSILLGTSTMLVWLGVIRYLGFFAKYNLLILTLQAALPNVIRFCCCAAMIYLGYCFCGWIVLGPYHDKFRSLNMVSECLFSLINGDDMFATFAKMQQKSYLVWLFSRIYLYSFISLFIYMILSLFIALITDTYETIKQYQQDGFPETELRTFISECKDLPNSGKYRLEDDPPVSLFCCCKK
- Method summary: Fluorescent TRPML3 assay (as for TRPML1)
- Type: cell-based
- Test settings: Table 3, compounds 101-177
pEC50: −log10 of the molar value.
Value kind: pEC50

- Smiles repr: "C[C@H]1CN(C(=O)C(C)(C)O)CCN1c1ncnc2c1c(C1CC1)cn2-c1cc(C#N)ccn1"
  Value kind: "pEC50"
  Result: "< 5.70"
- Smiles repr: "CC(C)C(=O)N1CCN(c2ncnc3c2c(-c2ccccc2F)cn3-c2cc(C#N)cnn2)[C@@H](C)C1"
  Value kind: "pEC50"
  Result: "6.30 to 7.00"
- Smiles repr: "CCN(CC)c1cn(-c2cccc(Cl)c2)c2ncnc(N3CCN(C(=O)C(C)C)C[C@@H]3C)c12"
  Value kind: "pEC50"
  Result: "5.70 to 6.30"
- Smiles repr: "C[C@H]1CN(C(=O)CC(C)(C)C(F)(F)F)CCN1c1ncnc2c1c(-c1ccccc1F)cn2-c1cc(C#N)ccn1"
  Value kind: "pEC50"
  Result: "> 7.00"
- Smiles repr: "Cc1nccnc1-c1cn(-c2cc(C#N)ccn2)c2ncnc(N3C[C@@H](C)N(C(=O)C(C)C)C[C@@H]3C)c12"
  Value kind: "pEC50"
  Result: "< 5.70"
- Smiles repr: "CCCN(CC)c1cn(-c2cc(C#N)ccn2)c2ncnc(N3CCN(C(=O)CC(C)(C)C)C[C@@H]3C)c12"
  Value kind: "pEC50"
  Result: "> 7.00"
- Smiles repr: "C[C@H]1CN(C(=O)C(C)(C)O)CCN1c1ncnc2c1c(-c1ccccc1F)cn2-c1cc(C#N)ccn1"
  Value kind: "pEC50"
  Result: "6.30 to 7.00"
